All figures here come from patent US11753395B2.

- Measured Target: Ba/F3-TPR-MET cells (Homo sapiens)
- Construct: fused on or other part: P12270 (Nucleoprotein TPR)
- Sequence (P08581 whole entry, change not shown, the tested form may be a part): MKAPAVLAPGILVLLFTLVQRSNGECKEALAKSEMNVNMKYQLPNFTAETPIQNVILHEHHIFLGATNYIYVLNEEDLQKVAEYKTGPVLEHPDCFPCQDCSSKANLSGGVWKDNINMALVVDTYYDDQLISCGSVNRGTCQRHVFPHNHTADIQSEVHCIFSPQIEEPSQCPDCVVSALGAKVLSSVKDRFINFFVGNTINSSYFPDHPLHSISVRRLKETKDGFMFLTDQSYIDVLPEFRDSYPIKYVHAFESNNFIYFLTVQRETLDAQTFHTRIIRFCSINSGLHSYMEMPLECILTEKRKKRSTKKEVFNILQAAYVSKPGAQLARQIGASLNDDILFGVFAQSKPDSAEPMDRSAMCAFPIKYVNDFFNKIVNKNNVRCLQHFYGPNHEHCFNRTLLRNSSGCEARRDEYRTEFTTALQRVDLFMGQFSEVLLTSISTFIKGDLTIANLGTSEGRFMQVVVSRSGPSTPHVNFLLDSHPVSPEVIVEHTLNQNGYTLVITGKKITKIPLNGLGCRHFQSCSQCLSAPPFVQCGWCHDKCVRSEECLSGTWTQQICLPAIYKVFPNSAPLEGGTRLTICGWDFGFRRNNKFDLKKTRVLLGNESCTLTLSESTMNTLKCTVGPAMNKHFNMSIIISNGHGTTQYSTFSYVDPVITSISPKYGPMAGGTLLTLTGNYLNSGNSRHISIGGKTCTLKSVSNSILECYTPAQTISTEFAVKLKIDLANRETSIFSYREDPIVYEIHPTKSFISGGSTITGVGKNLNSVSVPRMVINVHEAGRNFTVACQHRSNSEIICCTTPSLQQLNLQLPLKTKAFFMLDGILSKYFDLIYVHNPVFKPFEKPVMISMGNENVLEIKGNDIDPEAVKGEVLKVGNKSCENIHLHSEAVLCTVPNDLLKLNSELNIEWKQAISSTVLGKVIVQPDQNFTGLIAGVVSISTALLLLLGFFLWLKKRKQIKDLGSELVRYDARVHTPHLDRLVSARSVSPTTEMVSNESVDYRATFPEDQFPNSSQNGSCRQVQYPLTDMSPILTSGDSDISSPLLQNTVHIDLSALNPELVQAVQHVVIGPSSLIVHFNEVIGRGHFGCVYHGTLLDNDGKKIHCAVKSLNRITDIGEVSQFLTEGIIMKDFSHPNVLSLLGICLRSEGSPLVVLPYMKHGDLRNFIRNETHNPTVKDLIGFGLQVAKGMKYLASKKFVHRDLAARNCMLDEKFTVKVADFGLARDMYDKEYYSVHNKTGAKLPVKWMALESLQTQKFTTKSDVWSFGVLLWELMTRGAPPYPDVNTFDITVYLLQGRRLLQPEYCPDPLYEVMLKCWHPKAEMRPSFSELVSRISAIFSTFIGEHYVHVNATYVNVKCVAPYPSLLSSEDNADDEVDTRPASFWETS
- Assay Info: CellTiter-Glo Cell Viability Assay, Ba/F3-TPR-MET
- Measurement Context: 72 hours
pEC50: −log10 of the molar value.

# Compound, Measured Target, pEC50
records = [
    ("COc1ccncc1C(=O)Nc1cc(F)c(Oc2ccnc3cc(OCC(C)(C)O)ccc23)c(F)c1", "Ba/F3-TPR-MET cells (Homo sapiens)", "6.00 to 7.00"),
    ("CNCCOc1cc2nccc(Oc3c(F)cc(NC(=O)c4cccnc4OC4CC4)cc3F)c2cc1OC", "Ba/F3-TPR-MET cells (Homo sapiens)", "6.00 to 7.00"),
    ("CNCCOc1ccc2c(Oc3c(F)cc(NC(=O)c4cnccc4OC4CC4)cc3F)ccnc2c1", "Ba/F3-TPR-MET cells (Homo sapiens)", "≥ 7.00"),
    ("COc1cc2nccc(Oc3c(F)cc(NC(=O)c4cnccc4OC4CC4)cc3F)c2cn1", "Ba/F3-TPR-MET cells (Homo sapiens)", "6.00 to 7.00"),
]
